Exercise: state measured pull-down binding Z-score for each of the sequences provided.
tested on: G-clamp-N3 (biotin conjugate); assay: pull-down binding Z-score (relative to library population); higher = stronger binding; settings: RNA library: Library-1 (pre-miRNA loops + repeats)
Answer field: number only, no words.

Lookup result for CGCGCCCGGCCUAACUUUUAAGAAACGUCGGCCCGGGAGCG [hsa-mir-5095] ; measured pull-down binding Z-score: -0.0298

Lab note: CUUUCCUCAGCUGAUUUCUUUCUGGGGAGAG [hsa-mir-5186] gave pull-down binding Z-score of -0.72

Record UAGGGCUGGAUGGUAGGGCCCA [hsa-mir-6890] . Reported pull-down binding Z-score: 2.15

Looking up GCUUAUGUCAUGACCUUGGGCUACUCAGGCUGUCUGCACAAUGAGC [hsa-mir-575] , I found its pull-down binding Z-score recorded as -0.804

# sequence GUUGACUGUUGAAUCUCAUGGCAAC [hsa-mir-21] ; its pull-down binding Z-score = -0.474

According to the records, this sequence GUCCUGACUGCGUGCCAGGGGC [hsa-mir-3650] displays pull-down binding Z-score of 0.903

Summary for this sequence, UCGCCUAGGGCUCUGAGCAGGGCA [hsa-mir-211] : pull-down binding Z-score is 1.4

# sequence UUCGCGGUUGGGCU [hsa-mir-3143] ; its pull-down binding Z-score = 0.897

// sample UUUGCCGUUGCUUUUAAUGGUAAA [hsa-mir-548as] , its pull-down binding Z-score was -0.134

In plain terms, GGGUGAGAGUGCUUUCUGAAUGCAGUGCACCC [hsa-mir-500b] has a documented pull-down binding Z-score of 0.8

The measured pull-down binding Z-score associated with ACAAUAUGCUAUUAUAAUCGUAUGGCAUUGU [hsa-mir-2355] reads 0.228

Reported pull-down binding Z-score for GACAUCUGGGCCAACUCUGAUCUC [hsa-mir-6515] was -1.32

Reported pull-down binding Z-score ( GGCUGCAGGCCCGGCCCCUCUC [hsa-mir-6787] ) = 0.112

Note to self: pull-down binding Z-score recorded for ACAGUUUGAGGGUCUAUGAUACCACCCGGUACAGGAGAUAACUGU [hsa-let-7g] was 0.817

pull-down binding Z-score reported for this sequence UGCAGUAUCCGCUGUUGCUGCU [hsa-mir-6132] : -1.39

Note to self: pull-down binding Z-score recorded for GAAGCACUGGUUAUGAUUUGCAUC [hsa-mir-3126] was -0.739

get_value(item= AUCAGGCAGUUUCCUG [hsa-mir-4289] , readout=pull-down binding Z-score) returns -1.29

The recorded pull-down binding Z-score for UUUACAUGCUACAGUCAAGAUGCGAA [hsa-mir-15b] is -0.982

Entry GAGAACUCACGGUGCCUGUGGUUCGA [hsa-mir-3125] , pull-down binding Z-score reported as -0.479

Entry under test: CCACCCACCAGGGAGCUUUCCAUGGGCUGUGGG [hsa-mir-4725] . Its pull-down binding Z-score was 1.47

pull-down binding Z-score reading for GAGAGUGCUGUCUGAAUGCAAUGC [hsa-mir-500a] : 1.08

The sequence GUUUGCAAGGGGUGUUUCUGUCCAUGGUCAGGC [hsa-mir-4283-1_4283-2] showed pull-down binding Z-score equal to 1.19

Memo: GGCCAUCUGGCC [hsa-mir-4252] , reported pull-down binding Z-score: 0.63

Summary for this sequence, UCAUAAAGAUGAUC [hsa-mir-8067] : pull-down binding Z-score is -0.0232

The sequence CUCCUAUUGAAAAUGAACAGGAG [hsa-mir-873] showed pull-down binding Z-score equal to -0.315

pull-down binding Z-score measured on CAGCCUGGGGCAUCGGUUG [hsa-mir-5572] = -0.0198

sequence GAGGCCAGAGGUGCCC [hsa-mir-4292] , pull-down binding Z-score observed: 0.687

Lab book: pull-down binding Z-score of UAGACAAUGGUUUCAUCAUUUCGUCUG [hsa-mir-4427] noted as -0.055

The value of pull-down binding Z-score measured for the sequence GGUAAGGUCUUUCAGCC [hsa-mir-7150] turned out to be 0.213

pull-down binding Z-score reading for GCCUCUUCUCCAUGAGAGGC [hsa-mir-885] : 1.74

In plain terms, AUGUCUGCUGGGGAACCGGGGCU [hsa-mir-4518] has a documented pull-down binding Z-score of 1.1

// pull-down binding Z-score lookup, sequence = UGUAUAUAGCAUAUGUGUAUACAUACACACACACACACACACACACACA [hsa-mir-8485] , result: -1.14

The reported value for CCUUUGUGAGCAGUGUGACCCAAGGCCUGUGGACAGGG [hsa-mir-555] in terms of pull-down binding Z-score is 0.911

AGCAAGGUGCGUCGUAUCUUGCU [hsa-mir-4804] has a reported pull-down binding Z-score of 0.816

AGUUCCUGAUUAAGAAAUGGAAUU [hsa-mir-4699] yielded pull-down binding Z-score of -0.224

Kindly note the recorded pull-down binding Z-score for GACAGGGAAAAGCACACAAGGAACUUGUC [hsa-mir-3909] , which is 0.557

// pull-down binding Z-score value for AGCAGUACCAGACGGUUCUGUGG [hsa-mir-3198-1] : -0.487

// pull-down binding Z-score lookup, sequence = CUGGGAAGGGAGCUGUCCGGCUCCCCAG [hsa-mir-3155b] , result: 2.41

Value of pull-down binding Z-score reported for the sequence CUUCGCGCUAGUUUGUUUGUGUUAAG [hsa-mir-6077] is -0.639

Sample CUUUCUGUUGGCUAAAAGAAAAGAAAG [hsa-mir-518e] ; pull-down binding Z-score observed: 1.11

Record AUACUGGAGCAAUAGAUACAGUU [hsa-mir-3692] . Reported pull-down binding Z-score: -0.223

get_value(item= CGGGGCGGACGCAGAGCCGCGUUUAGUCUAUCG [hsa-mir-639] , readout=pull-down binding Z-score) returns -0.413

The reported value for UGUGGCCUGGGGGUUGAGGACCCCUGCUCUA [hsa-mir-645] in terms of pull-down binding Z-score is 1.32

Sample GGCAUCUAGGCUGUGCACAGUGACGCC [hsa-mir-4749] ; pull-down binding Z-score observed: 0.317

Lab book: pull-down binding Z-score of AUAGUUUUAGGGCAGGGAUUUUGCCCACAAGGAGGUAACUAU [hsa-let-7d] noted as -0.917

* * *

test system: TO-N3-2 (biotin conjugate); assay: pull-down binding Z-score (relative to library population); higher = stronger binding; conditions: RNA library: Library-2
metric_name: pull-down binding Z-score
// keep it numeric: no unit symbol after the value

Here AGGGUGGAGCCCACUGUGGCUCCUGACUCAGCCCU [hsa-mir-6893] was tested on TO-N3-2 (biotin conjugate), and its pull-down binding Z-score came to 0.419

Short answer on TO-N3-2 (biotin conjugate) for GUGCAGCUUGUACCUGCAC [hsa-mir-1293] , pull-down binding Z-score: -0.592

Measured pull-down binding Z-score (TO-N3-2 (biotin conjugate)), entry GCUUUGUCCAAAAUGCCCUUAAUGGGAACGGGGAUCCAAAUAACAUGGACAAAGC [IAV_invivo_M1_M2_7_Motif_6+IAV_invivo_M1_M2_7_Motif_6] : -0.236

Measured pull-down binding Z-score (TO-N3-2 (biotin conjugate)), entry CUGAGAGGUUUACAUUUCUC [hsa-mir-128-1] : -0.0343

Value sought: pull-down binding Z-score, system TO-N3-2 (biotin conjugate), item CCAUGUGGUUGCGAGGUAUGAGUAAAACAUGG [hsa-mir-218-1] . Result: 0.275

Considering UCAGGGAGAAAGUGCAUACAGCCCCUG [hsa-mir-328] , its pull-down binding Z-score with TO-N3-2 (biotin conjugate) was recorded as 0.36

Noted pull-down binding Z-score for UUUUUGCAUUACGUUCUAUGGCAAAA [hsa-mir-548g] , tested on TO-N3-2 (biotin conjugate): -0.0583

Measured pull-down binding Z-score for this entry UGAACAGUGAUUGGUUUCCGCUUUGUUCA [hsa-mir-27b] on TO-N3-2 (biotin conjugate): -0.317

TO-N3-2 (biotin conjugate) pull-down binding Z-score of ACACUGCGCUGCCCCAGACCCACUGU [hsa-mir-210] is 0.683

Param item: `GCAGUUAAAAUGUUUGAUGCUUACGUUAAUACGUUUUCAUCAACUUUUAACGU` ; param system: TO-N3-2 (biotin conjugate); output pull-down binding Z-score: -1.09

* * *

test system: TO-N3 (biotin conjugate); experiment: pull-down binding Z-score (relative to library population); higher = stronger binding; conditions: RNA library: Library-2
metric_name: pull-down binding Z-score
Write the value as a bare number.

Given item CAGGUACAGUAGAUACUUACCUG [U1snRNP5ss-19] , the value recorded as its pull-down binding Z-score is -0.984

Looking up GGGACUGAGAAUUAGCUCAUCCU [IAV_invivo_PB2_1_Motif_14+IAV_invivo_PB2_1_Motif_14] , I see its pull-down binding Z-score listed as -0.536

For reference, reported pull-down binding Z-score for UAGCUGGUUUUGCUA [SHAPE_invivo_SARS-CoV-2_Motif_257] stands at 0.281

Input UUUUGCCAUUACUUUCAAUGGCAAAA [hsa-mir-548aa-2] . Output pull-down binding Z-score: -0.176

Record GAAUGAAAAAAUGAAUCAUC [hsa-mir-421] , field pull-down binding Z-score: -0.29

Value of measured pull-down binding Z-score for the entry CCAUUAUUUUUAAUAAUUAUAAUAAUGG [hsa-mir-548s] : -0.233

Just so you know, measured pull-down binding Z-score for GCUGCUGGUGCUCAUCUCAGC [hsa-mir-6877] came out at 0.825

Reported pull-down binding Z-score of GGCUGCAGGCCCGGCCCCUCUC [hsa-mir-6787] : 1.1

Sample UGGACCUCAGGGAAGAGGCUG [hsa-mir-4673] ; pull-down binding Z-score observed: -0.619

Entry CUUACUGCCCGGGCCGCCCUCAGUAA [hsa-mir-212] — recorded pull-down binding Z-score = 1.17

For this sequence ( UUUUUGUUUUUGAGACAGAGU [hsa-mir-4472-2] ), measured pull-down binding Z-score is 0.274
